Origin of the recorded values: the supplement of paper PMC7877785

// self-splicing fitness (ln) lookup, one value per entry
Assay overview: self-splicing fitness, log relative to wild type (ln ratio); higher = more splicing; Tetrahymena group I intron in knt gene, E. coli kanamycin selection, DiMSum; sequences stand for … in CUCUCU…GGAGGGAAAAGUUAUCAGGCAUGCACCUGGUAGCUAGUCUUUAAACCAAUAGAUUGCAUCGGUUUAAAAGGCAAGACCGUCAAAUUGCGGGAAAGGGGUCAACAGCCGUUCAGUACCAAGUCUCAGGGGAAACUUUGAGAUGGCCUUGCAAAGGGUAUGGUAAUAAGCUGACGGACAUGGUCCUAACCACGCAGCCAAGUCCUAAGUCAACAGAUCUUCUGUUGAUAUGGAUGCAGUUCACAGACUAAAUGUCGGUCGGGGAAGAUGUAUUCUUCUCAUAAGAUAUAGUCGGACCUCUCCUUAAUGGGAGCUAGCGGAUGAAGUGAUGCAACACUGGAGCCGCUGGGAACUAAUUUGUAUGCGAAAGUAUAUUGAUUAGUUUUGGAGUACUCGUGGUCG;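 also: selection with 25 µg/mL kanamycin versus none on LB agar overnight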
Assay setup: 30 °C
Measured property: self-splicing fitness (ln)

Monomer sequence: CACUAGCAAUAUUACGCUAU
Measured property: self-splicing fitness (ln)
Recorded number: -3.92
//
Monomer sequence: CGAAAGCAAUAUUACGCCAA
Measured property: self-splicing fitness (ln)
Recorded number: -2.65
//
Monomer sequence: GGUGAGCAAUAUUACGACUA
Measured property: self-splicing fitness (ln)
Recorded number: -0.202
//
Monomer sequence: AUAGAGCAAUAUUACGCGGC
Measured property: self-splicing fitness (ln)
Recorded number: -3.33
//
Monomer sequence: GUAUAGCAAUAUUACGAACU
Measured property: self-splicing fitness (ln)
Recorded number: -1.75
//
Monomer sequence: UUGAAGCAAUAUUACGAUCG
Measured property: self-splicing fitness (ln)
Recorded number: -0.0761
//
Monomer sequence: GAUUAGCAAUAUUACGUUUU
Measured property: self-splicing fitness (ln)
Recorded number: -3.88
//
Monomer sequence: GCGUAGCAAUAUUACGAGAG
Measured property: self-splicing fitness (ln)
Recorded number: -3.3
//
Monomer sequence: GAAAAGCAAUAUUACGUUGA
Measured property: self-splicing fitness (ln)
Recorded number: -2.87
//
Monomer sequence: CCUAAGCAAUAUUACGAAGG
Measured property: self-splicing fitness (ln)
Recorded number: -3.55
//
Monomer sequence: AAUGAGCAAUAUUACGAGCC
Measured property: self-splicing fitness (ln)
Recorded number: -1.79
//
Monomer sequence: AUGAAGCAAUAUUACGCACG
Measured property: self-splicing fitness (ln)
Recorded number: -1.09
//
Monomer sequence: CAUUAGCAAUAUUACGGGCA
Measured property: self-splicing fitness (ln)
Recorded number: -2.73
//
Monomer sequence: GAUCAGCAAUAUUACGUGCC
Measured property: self-splicing fitness (ln)
Recorded number: -1.16
//
Monomer sequence: CACAAGCAAUAUUACGAAUC
Measured property: self-splicing fitness (ln)
Recorded number: -4.04
//
Monomer sequence: GUGCAGCAAUAUUACGAGGC
Measured property: self-splicing fitness (ln)
Recorded number: -1.83
